Parameter: IC50. Scope: all listed entries.
Target: human orexin-2 receptor (Homo sapiens (Human), UniProt O43614)
Sequence (O43614 whole entry): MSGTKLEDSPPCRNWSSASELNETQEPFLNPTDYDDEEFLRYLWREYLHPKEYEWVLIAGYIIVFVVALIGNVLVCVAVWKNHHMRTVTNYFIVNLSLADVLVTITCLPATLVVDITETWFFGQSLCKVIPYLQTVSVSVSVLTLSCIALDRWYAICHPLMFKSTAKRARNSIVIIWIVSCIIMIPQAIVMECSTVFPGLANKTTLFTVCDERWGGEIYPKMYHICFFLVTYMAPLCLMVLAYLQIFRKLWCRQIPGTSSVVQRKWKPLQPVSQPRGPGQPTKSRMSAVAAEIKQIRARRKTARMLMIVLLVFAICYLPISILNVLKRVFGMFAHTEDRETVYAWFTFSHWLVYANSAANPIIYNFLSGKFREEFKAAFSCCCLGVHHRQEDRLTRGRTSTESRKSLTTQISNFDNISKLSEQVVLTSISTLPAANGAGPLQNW
Test: In vitro assay: intracellular calcium measurements (FLIPR), antagonistic activity
Conditions: CHO cells expressing human orexin-2 receptor, orexin-A agonist, geometric mean, read-out: IC50 Ox2
Description: In Vitro Assay: Intracellular Calcium Measurements: […] Within the Fluorescent Imaging Plate Reader (FLIPR Tetra, Molecular Devices), antagonists are added to the plate in a volume of 10 μl/well, incubated for 120 min and finally 10 μl/well of agonist is added. […] The calculated IC50 values may fluctuate depending on the daily cellular assay performance. […]
attribute measured: IC50 (nM)

- compound: "Cc1nc(C(=O)N2CCCC2c2nc3cc(C(F)(F)F)c(Cl)cc3[nH]2)c(-c2cccc(Cl)c2)s1 (stereo not drawn)"
  quantitative readout: 58
- compound: "CO[C@@H]1C[C@@H](c2nc3ccc(Cl)c(C)c3[nH]2)N(C(=O)c2nc(C)sc2-c2ccc(C)cc2)C1"
  quantitative readout: 9
- compound: "Cc1nc(C(=O)N2CC[C@H](C)[C@H]2c2nc3c(C)c(Cl)ccc3[nH]2)c(-c2ccc(Cl)cc2)s1"
  quantitative readout: 122
- compound: "C=C1C[C@@H](c2nc3ccc(Cl)c(C)c3[nH]2)N(C(=O)c2nc(C)sc2-c2ccc(F)c(Br)c2)C1"
  quantitative readout: 0.8
- compound: "Cc1nc(C(=O)N2CC[C@H](C)[C@H]2c2nc3c(F)cccc3[nH]2)c(-c2cccc(Cl)c2)s1"
  quantitative readout: 2930
- compound: "COc1ccc2nc([C@@H]3CCCN3C(=O)c3cnc(C)nc3-c3ccccc3)[nH]c2c1"
  quantitative readout: 139
- compound: "Cc1ccc(-c2nc(C)sc2C(=O)N2CC[C@H](C)[C@H]2c2nc3c(C)cc(Cl)cc3[nH]2)cc1"
  quantitative readout: 996
- compound: "COc1ccc2nc([C@@H]3CCCN3C(=O)c3ccccc3-n3nccn3)[nH]c2c1"
  quantitative readout: 35
- compound: "COc1ccc2nc([C@@H]3CCCN3C(=O)c3cncnc3-c3ccc(Br)c(Cl)c3)[nH]c2c1"
  quantitative readout: 147
- compound: "Cc1nc(C(=O)N2CCC[C@@]2(C)c2nc3c(F)c(F)ccc3[nH]2)c(-c2cccc(Cl)c2)s1"
  quantitative readout: 78
- compound: "Cc1cccc2[nH]c([C@]3(C)CCCN3C(=O)c3ccccc3-n3nccn3)nc12"
  quantitative readout: 43
- compound: "CSc1cccc2nc([C@@H]3CCCN3C(=O)c3cnc(C)nc3-c3ccc(C)c(C)c3)[nH]c12"
  quantitative readout: 23
- compound: "C[C@@]1(c2nc3cc(C(F)(F)F)ccc3[nH]2)CCCN1C(=O)c1c(F)cccc1-n1nccn1"
  quantitative readout: 419
- compound: "Cc1nc(C(=O)N2CC[C@H](C)[C@H]2c2nc3c(C)cc(Cl)cc3[nH]2)c(-c2ccc(Cl)cc2)s1"
  quantitative readout: 543
- compound: "C=C1CC(c2nc3cccc(Cl)c3[nH]2)N(C(=O)c2cc(C)sc2-c2ccc(C)c(C)c2)C1 (stereo not drawn)"
  quantitative readout: 14

* * *

Parameter: pIC50. Scope: all listed entries.
target: human orexin-2 receptor (Homo sapiens (Human)); assay: In vitro assay: intracellular calcium measurements (FLIPR), antagonistic activity; settings: CHO cells expressing human orexin-2 receptor, orexin-A agonist, geometric mean, read-out: IC50 Ox2
pIC50: −log10 of the molar value.

- compound: "Cc1ccc(-c2cccc(F)c2)c(C(=O)N2CCC[C@@]2(C)c2nc3cc(C(F)(F)F)c(Cl)cc3[nH]2)c1 [Ex. 5.153]"
  pIC50: 7.46
- compound: "COc1cc2nc([C@]3(C)CCCN3C(=O)c3ccccc3-c3cccc(C)c3)[nH]c2cc1OC [Ex. 5.87]"
  pIC50: 6.80
- compound: "Cc1ccc2[nH]c([C@]3(C)CCCN3C(=O)c3ccccc3-c3cccc(F)c3)nc2c1C [Ex. 5.116]"
  pIC50: 7.72
- compound: "COc1ccc2nc([C@@H]3CCCN3C(=O)c3cc(C)ccc3-n3nccn3)[nH]c2c1 [Ex. 1.16]"
  pIC50: 8.30
- compound: "COc1ccc(-c2cccc(C(F)(F)F)c2)c(C(=O)N2CCC[C@@]2(C)c2nc3ccc(Cl)c(C)c3[nH]2)c1F [Ex. 5.303]"
  pIC50: 7.68
- compound: "Cc1nc(C(=O)N2C[C@H](F)C[C@H]2c2nc3c(C)cccc3[nH]2)c(-c2cccc(Cl)c2)s1 [Ex. 2.9]"
  pIC50: 7.74
- compound: "Cc1ccc(-n2nccn2)c(C(=O)N2CCC[C@@]2(C)c2nc3cc(C(F)(F)F)c(Cl)cc3[nH]2)n1 [Ex. 5.145]"
  pIC50: 7.52
- compound: "C[C@@]1(c2nc3cc(Cl)c(C(F)(F)F)cc3[nH]2)CCCN1C(=O)c1nc(-c2ccccc2)sc1-c1ccc(F)cc1 [Ex. 5.285]"
  pIC50: 6.34
- compound: "Cc1cc2nc([C@@H]3[C@@H](C)CCN3C(=O)c3ccccc3-n3nccn3)[nH]c2cc1C [Ex. 4.85]"
  pIC50: 7.37
- compound: "COc1cccc(-c2sc(C)nc2C(=O)N2CCC[C@H]2c2nc3ccc(SC)cc3[nH]2)c1 [Ex. 1.37]"
  pIC50: 7.21
- compound: "C=C1C[C@@H](c2nc3cc(Cl)c(C(F)(F)F)cc3[nH]2)N(C(=O)c2cc(OC)c(OC)cc2-n2nccn2)C1 [Ex. 6.186]"
  pIC50: 8.22
- compound: "COc1ccc(-c2cccc(OC(F)(F)F)c2)c(C(=O)N2CCC[C@@]2(C)c2nc3c(C)c(Cl)ccc3[nH]2)c1F [Ex. 5.309]"
  pIC50: 7.68
- compound: "CO[C@H]1C[C@@H](c2nc3c(C)c(Cl)ccc3[nH]2)N(C(=O)c2nc(C)sc2-c2ccccc2)C1 [Ex. 3.5]"
  pIC50: 7.13
- compound: "Cc1ccc(-c2ccc(F)cc2C)c(C(=O)N2CCC[C@@]2(C)c2nc3cc(C(F)(F)F)ccc3[nH]2)c1 [Ex. 5.181]"
  pIC50: 6.25
- compound: "COc1ccc(-n2nccn2)c(C(=O)N2C[C@H](OC)CC2(C)c2nc3c(C)c(Cl)ccc3[nH]2)c1F (stereo partly drawn) [Ex. 3.46]"
  pIC50: 6.54
